- Test system: 922993-354-T-J3-PDC complex spheroid viability
- test.name: Anticancer human tumor 922993-354-T-J3-PDC patient-derived endometrial carcinoma cell line growth inhibition [POLQ]
- protocol.conditions: curve of first compound; second compound 0.316 µM
observed.property: IC50

compound	experimental.value
CCCS(=O)(=O)Nc1ccc(F)c(C(=O)c2c[nH]c3ncc(-c4ccc(Cl)cc4)cc23)c1F + Cc1cccc(N(C)C(=O)C2C(O)CCN2c2nc(C)cc(C(F)(F)F)c2C#N)c1	> 10 µM
Nc1ccn(C2OC(CO)C(O)C2(F)F)c(=O)n1 (stereo not given) + Cc1cccc(N(C)C(=O)C2C(O)CCN2c2nc(C)cc(C(F)(F)F)c2C#N)c1	< 0.0316 µM
CCc1c2c(nc3ccc(O)cc13)-c1cc3c(c(=O)n1C2)COC(=O)[C@]3(O)CC + COC1C(OC(N)=O)C(O)C(Oc2ccc3c(O)c(NC(=O)c4ccc(O)c(CC=C(C)C)c4)c(=O)oc3c2C)OC1(C)C	0.00819 µM
COc1ccc([C@@H](O)c2cc(-c3ncnc4cc(N5CCOCC5)ccc34)c(F)cc2Cl)nn1 + Nc1ccc(C#CCN(C(=O)Cc2ncc(C(F)(F)F)cc2C(F)(F)F)c2ccc(F)cc2)nn1	> 10 µM
CC(C)n1c(=O)n(C)c2cnc3cc(F)c(-c4ccc(OCCCN5CCCCC5)nc4)cc3c21 + Nc1ccc(C#CCN(C(=O)Cc2ncc(C(F)(F)F)cc2C(F)(F)F)c2ccc(F)cc2)nn1	> 10 µM

###

- Tested on: 922993-354-T-J3-PDC complex spheroid viability
- test.name: Anticancer human tumor 922993-354-T-J3-PDC cell line growth inhibition [POLQ];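 also: spheroids exposed to the agents for one week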
- protocol.conditions: curve of first compound; second compound 0.316 µM
pIC50: −log10 of the molar value.

molecule	pIC50
CC1COCCN1c1cc(C2(O)CC3CCC(C2)O3)c2cnn(-c3ccn[nH]3)c2n1 (stereo unspecified) + Nc1ccc(C#CCN(C(=O)Cc2ncc(C(F)(F)F)cc2C(F)(F)F)c2ccc(F)cc2)nn1	5.64
Cn1ncnc1[C@H]1c2n[nH]c(=O)c3cc(F)cc(c23)N[C@@H]1c1ccc(F)cc1 + COC1C(OC(N)=O)C(O)C(Oc2ccc3c(O)c(NC(=O)c4ccc(O)c(CC=C(C)C)c4)c(=O)oc3c2C)OC1(C)C	< 7.00
CCc1cc2c(N3CCc4c(cc(Cn5ccnc5)cc4-c4cn(C)nc4C(F)(F)F)C3=O)cc(C)nc2c(OC)n1 + Cc1cccc(N(C)C(=O)C2C(O)CCN2c2nc(C)cc(C(F)(F)F)c2C#N)c1	< 5.00
COc1cc2cc(C(=O)CCC(=O)O)sc2cc1OC + Nc1ccc(C#CCN(C(=O)Cc2ncc(C(F)(F)F)cc2C(F)(F)F)c2ccc(F)cc2)nn1	< 5.00
CCCS(=O)(=O)Nc1ccc(F)c(C(=O)c2c[nH]c3ncc(-c4ccc(Cl)cc4)cc23)c1F + Nc1ccc(C#CCN(C(=O)Cc2ncc(C(F)(F)F)cc2C(F)(F)F)c2ccc(F)cc2)nn1	< 5.00
CC1COCCN1c1cc(C2(S(C)(=N)=O)CC2)nc(-c2ccnc3[nH]ccc23)n1 (stereo unspecified) + COC1C(OC(N)=O)C(O)C(Oc2ccc3c(O)c(NC(=O)c4ccc(O)c(CC=C(C)C)c4)c(=O)oc3c2C)OC1(C)C	< 5.00
O=c1[nH]cc(F)c(=O)[nH]1 + Cc1cccc(N(C)C(=O)C2C(O)CCN2c2nc(C)cc(C(F)(F)F)c2C#N)c1	5.68
CC1COCCN1c1cc(C2(O)CC3CCC(C2)O3)c2cnn(-c3ccn[nH]3)c2n1 (stereo unspecified) + Cc1cccc(N(C)C(=O)C2C(O)CCN2c2nc(C)cc(C(F)(F)F)c2C#N)c1	6.24
CC(C)n1c(=O)n(C)c2cnc3cc(F)c(-c4ccc(OCCCN5CCCCC5)nc4)cc3c21 + Cc1cccc(N(C)C(=O)C2C(O)CCN2c2nc(C)cc(C(F)(F)F)c2C#N)c1	< 5.00
C#Cc1c(F)ccc2cc(O)cc(-c3ncc4c(N5CC6CCC(C5)N6)nc(OCC56CCCN5CC(F)C6)nc4c3F)c12 (stereo unspecified) + Nc1ccc(C#CCN(C(=O)Cc2ncc(C(F)(F)F)cc2C(F)(F)F)c2ccc(F)cc2)nn1	< 5.00
CC1COCCN1c1cc(C2(S(C)(=N)=O)CC2)nc(-c2ccnc3[nH]ccc23)n1 (stereo unspecified) + Cc1cccc(N(C)C(=O)C2C(O)CCN2c2nc(C)cc(C(F)(F)F)c2C#N)c1	< 5.00
